Entry source: PubChem BioAssay AID1508612

protocol.text: passive permeability, PAMPA, ADME assay (AID 1508612)
study.conditions: pH 7.4, 30.0 min, 50.0 µM
assay.endpoint: Papp (×10⁻⁶ cm/s)
Please respond with the number in ×10⁻⁶ cm/s and leave the unit unwritten.

Prompt: Please look up its Papp: COc1cc2nccc(Oc3ccc(NC(=O)Nc4cc(C)on4)c(Cl)c3)c2cc1OC
Completion: 328

Prompt: Please look up its Papp: Cc1cccc(-c2cc(NC(=O)c3ccccc3C)n(-c3ccccc3)n2)c1
Completion: 657

Prompt: Please look up its Papp: COc1ccc(CN(C2CCCCC2C)S(=O)(=O)c2ccc(S(=O)(=O)N(C)C)cc2)cc1OC (stereo not given)
Completion: 18.8

Prompt: Please look up its Papp: COc1ccc(CN2CCN(C(=O)c3cc4c(s3)CCC4)CC2)cc1
Completion: 997

Prompt: Please look up its Papp: CC(C)(N)C(=O)N[C@H](COCc1ccccc1)C(=O)N1CCC2(CC1)CN(S(C)(=O)=O)c1ccccc12
Completion: 819

Prompt: Please look up its Papp: COc1c(C)c2c(c(O)c1C/C=C(\C)CCC(=O)OCCN1CCOCC1)C(=O)OC2
Completion: 613

// below: Papp requested for another compound
Prompt: Please look up its Papp: COCCNc1ncc(-c2cccc(O)c2)c2c1OCC2
Completion: 412

* * *

protocol.text: passive permeability, PAMPA, ADME assay (AID 1508612)
study.conditions: pH 7.4, 30.0 min, 50.0 µM
One threshold, 600 ×10⁻⁶ cm/s, splits the recorded Papp values: lower ones are true (1), equal or higher ones are false (0).

Prompt: Bench note: check whether COc1ccccc1C(=O)Nc1nnc(SCc2cc(=O)c3ccccc3[nH]2)s1 shows Papp below 600 ×10⁻⁶ cm/s
Completion: true (1)

Prompt: Bench note: check whether Cc1ccc(-c2cc(C(=O)Nc3ccc(-c4nn[nH]n4)cc3)c3ccccc3n2)cc1C shows Papp below 600 ×10⁻⁶ cm/s
Completion: true (1)

Prompt: Bench note: check whether COc1ccc(/C=C2/C(=O)Nc3ccccc32)cc1O shows Papp below 600 ×10⁻⁶ cm/s
Completion: false (0)

Prompt: Bench note: check whether CNC(=O)C1CCN(c2nc(-c3ccc(Br)cc3)cs2)CC1 shows Papp below 600 ×10⁻⁶ cm/s
Completion: false (0)

Prompt: Bench note: check whether CCOc1ccc(CCNC(=O)c2cc3cnccc3n2Cc2cccc(C)n2)cc1OCC shows Papp below 600 ×10⁻⁶ cm/s
Completion: true (1)

Continuing:
Prompt: Bench note: check whether CCC(CC)C(=O)NC[C@@H]1C=C(C)[C@H](Cc2nc3c(C)cccc3[nH]2)C[C@H]1C(C)C shows Papp below 600 ×10⁻⁶ cm/s
Completion: false (0)

Prompt: Bench note: check whether CN1CCCN(C(c2ccccc2)c2ccc(Cl)cc2)CC1 (stereo not drawn) shows Papp below 600 ×10⁻⁶ cm/s
Completion: false (0)

Prompt: Bench note: check whether Cc1cc(-c2nnc3n2CCCCC3)c(C)n1-c1ccc(C#N)cc1 shows Papp below 600 ×10⁻⁶ cm/s
Completion: true (1)

Prompt: Bench note: check whether COc1ccc(CNC(=O)Cn2nc3c(cc2=O)CCCC3)cc1 shows Papp below 600 ×10⁻⁶ cm/s
Completion: true (1)

Prompt: Bench note: check whether Cc1cn(-c2cc(NC(=O)c3ccc(C)c(Nc4nccc(-c5cccnc5)n4)c3)cc(C(F)(F)F)c2)cn1 shows Papp below 600 ×10⁻⁶ cm/s
Completion: false (0)

Prompt: Bench note: check whether N#Cc1nc(-c2cccc3ccccc23)oc1Nc1ccccc1 shows Papp below 600 ×10⁻⁶ cm/s
Completion: false (0)

Prompt: Bench note: check whether CCCCCn1c(=O)[nH]c2cc(C(=O)NCCCN3CCC(C)CC3)ccc2c1=O shows Papp below 600 ×10⁻⁶ cm/s
Completion: true (1)

Prompt: Bench note: check whether CC(=O)N1CCC2(CCCN(c3ccc(-c4ccccc4)cc3)C2)CC1 shows Papp below 600 ×10⁻⁶ cm/s
Completion: false (0)

Prompt: Bench note: check whether Cc1ccc(S(=O)(=O)Nc2ccc(F)cc2C(=O)Nc2nc(-c3ccccc3)cs2)cc1 shows Papp below 600 ×10⁻⁶ cm/s
Completion: true (1)

Prompt: Bench note: check whether COc1ccc(NC(=O)c2[nH]c(C)cc2C)cc1S(=O)(=O)Nc1ccc(Br)cc1 shows Papp below 600 ×10⁻⁶ cm/s
Completion: false (0)

Prompt: Bench note: check whether Cc1cccc2c1NC(=O)/C2=C/c1cc(Cl)c(O)c(Cl)c1 shows Papp below 600 ×10⁻⁶ cm/s
Completion: true (1)

Prompt: Bench note: check whether O=C(O)c1cn(C2CC2)c2cc(N3C[C@@H]4C[C@H]3CN4)c(F)cc2c1=O shows Papp below 600 ×10⁻⁶ cm/s
Completion: true (1)

Prompt: Bench note: check whether O=C(O)c1ccnc(-c2cc(C(=O)NCCc3ccccc3)ccn2)c1 shows Papp below 600 ×10⁻⁶ cm/s
Completion: true (1)
